target: SfurOBP2 (Sogatella furcifera); experiment: biochemical; assay type: binding; settings: ligand concentration 18 (unit not given), replicate column 1 of 3
Sequence (V5T759 entry or part of it): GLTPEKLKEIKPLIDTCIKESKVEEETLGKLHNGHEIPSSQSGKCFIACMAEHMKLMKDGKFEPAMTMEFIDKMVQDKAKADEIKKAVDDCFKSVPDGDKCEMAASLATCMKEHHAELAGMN
Measured Fluorescence competitive binding assay, OBP2 (raw fluorescence reading), listed per entry for reference.
The answer should be a number; do not append a unit.

Recorded Fluorescence competitive binding assay, OBP2 (raw fluorescence reading), per entry:
For the compound CCCCCCCCCCCCO [lauryl alcohol] , report Fluorescence competitive binding assay, OBP2 (raw fluorescence reading).
12746

For the compound COC(=O)c1ccccc1 [benzoic acid methylester] , report Fluorescence competitive binding assay, OBP2 (raw fluorescence reading).
13696

For the compound CCCCCCCCCCC [n-hendecane] , report Fluorescence competitive binding assay, OBP2 (raw fluorescence reading).
15293

For the compound O=Cc1ccccc1 [benzaldehyde] , report Fluorescence competitive binding assay, OBP2 (raw fluorescence reading).
11847

Others:
For the compound C=CC(C)(O)CCC=C(C)CCC=C(C)C (mixture of isomers) [nerolidol] , report Fluorescence competitive binding assay, OBP2 (raw fluorescence reading).
11299

For the compound Cc1cc(C(C)(C)C)c(O)c(C(C)(C)C)c1 [BHT(2,6-di-tert-butyl-4-methylphenol)] , report Fluorescence competitive binding assay, OBP2 (raw fluorescence reading).
12799

For the compound C=C/C(C)=C/C/C=C(\C)CCC=C(C)C [α-farnesene] , report Fluorescence competitive binding assay, OBP2 (raw fluorescence reading).
23408

For the compound CCCCCCCCCCCCCC [n-tetradecane] , report Fluorescence competitive binding assay, OBP2 (raw fluorescence reading).
24630

For the compound CCCCCCCCC=O [nonanal] , report Fluorescence competitive binding assay, OBP2 (raw fluorescence reading).
16375

For the compound CC(C)COC(=O)CCCCC(=O)OCC(C)C [DA(diisobutyl adipate)] , report Fluorescence competitive binding assay, OBP2 (raw fluorescence reading).
14063

For the compound c1ccc2ccccc2c1 [naphthalene] , report Fluorescence competitive binding assay, OBP2 (raw fluorescence reading).
18334

For the compound C/C(=C\CO)CCC[C@H](C)CCC[C@H](C)CCCC(C)C [plant alcohol] , report Fluorescence competitive binding assay, OBP2 (raw fluorescence reading).
20374
